From: PubChem BioAssay (NCI)

# Tested on: NCI-H23 lung
# experiment.description: NCI tumour cell line growth inhibition, 48 h
# maps each entry to its GI50

- compound: "C=C1CCC2C3(C)COC(c4c(OC)cccc4OC)OC3CCC2(C)C1C/C=C1/C(=O)OCC1O (stereo not given)"
  GI50: "3.98 µM"
- compound: "CCCCCCC/C=C/[C@H]1O[C@]2(O)C(=O)C=C3C[C@@H](O[C@@H]4O[C@H](CO)[C@@H](O)C(O)[C@@H]4O)C[C@@H]3[C@H]2C=C1C (stereo not given in full)"
  GI50: "4.96 µM"
- compound: "CCCCCCCCCCCCCCCC(=O)N[C@H](/C=C/[C@H](O)CCCCCCCCCCCCC)CO"
  GI50: "> 100 µM"
- compound: "C1COCCOCCOCCOCCOCCO1.[Cl][Sn]([Cl])([c]1ccccc1)[c]1ccccc1"
  GI50: "2.97 µM"
- compound: "O=c1c2c(c3ccccc3n1-c1ccccc1)NC(=S)NC2c1ccc(Cl)cc1 (stereo not given)"
  GI50: "2.74 µM"
